B1: EHEE_rd4_0086 (parent)
chain: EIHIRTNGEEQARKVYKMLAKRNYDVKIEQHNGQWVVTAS

Variants of: B1
Test: folding stability dG (cDNA display proteolysis); higher = more stable
Conditions: PBS, room temperature
Observed property: folding stability dG (kcal/mol)
Numeric answer only, unit kcal/mol assumed.

Inquiry: Would you kindly share the measured folding stability dG for K21L ?
Reply text: 2.06

Inquiry: Would you kindly share the measured folding stability dG for A20N ?
Reply text: 0.982

Inquiry: Would you kindly share the measured folding stability dG for T6D ?
Reply text: -0.07

Inquiry: Would you kindly share the measured folding stability dG for K21P ?
Reply text: -0.238

Inquiry: Would you kindly share the measured folding stability dG for M18A ?
Reply text: 1.84

Inquiry: Would you kindly share the measured folding stability dG for V15K ?
Reply text: 0.551

Inquiry: Would you kindly share the measured folding stability dG for Q30M ?
Reply text: 1.81

Inquiry: Would you kindly share the measured folding stability dG for E9W ?
Reply text: 2.41

Inquiry: Would you kindly share the measured folding stability dG for V36Y ?
Reply text: 2.13

Inquiry: Would you kindly share the measured folding stability dG for L19A ?
Reply text: -0.32

Inquiry: Would you kindly share the measured folding stability dG for H31D ?
Reply text: 1.78

Inquiry: Would you kindly share the measured folding stability dG for S40H ?
Reply text: 1.77

Inquiry: Would you kindly share the measured folding stability dG for M18R ?
Reply text: 1.25

Inquiry: Would you kindly share the measured folding stability dG for V26L ?
Reply text: 0.829

Inquiry: Would you kindly share the measured folding stability dG for V36K ?
Reply text: 0.658

Inquiry: Would you kindly share the measured folding stability dG for K21C ?
Reply text: 2.71

Inquiry: Would you kindly share the measured folding stability dG for H3Y ?
Reply text: 2.36

Inquiry: Would you kindly share the measured folding stability dG for H3N ?
Reply text: 1.67

Inquiry: Would you kindly share the measured folding stability dG for A20I ?
Reply text: 2.17

Inquiry: Would you kindly share the measured folding stability dG for N32E ?
Reply text: 1.76

Inquiry: Would you kindly share the measured folding stability dG for H3Q ?
Reply text: 2.06

Inquiry: Would you kindly share the measured folding stability dG for L19I ?
Reply text: 0.108

Inquiry: Would you kindly share the measured folding stability dG for N23V ?
Reply text: 0.904

Inquiry: Would you kindly share the measured folding stability dG for H3W ?
Reply text: 2.12

Inquiry: Would you kindly share the measured folding stability dG for N23Q ?
Reply text: 1.67

Inquiry: Would you kindly share the measured folding stability dG for Q30W ?
Reply text: 1.8

Inquiry: Would you kindly share the measured folding stability dG for K27Q ?
Reply text: 1.44

Inquiry: Would you kindly share the measured folding stability dG for V26F ?
Reply text: -0.182

Inquiry: Would you kindly share the measured folding stability dG for A20L ?
Reply text: 2.51

Inquiry: Would you kindly share the measured folding stability dG for S40M ?
Reply text: 1.81

Inquiry: Would you kindly share the measured folding stability dG for N7E ?
Reply text: 1.69

Inquiry: Would you kindly share the measured folding stability dG for G8H ?
Reply text: 2.21

Inquiry: Would you kindly share the measured folding stability dG for A12T ?
Reply text: 0.108

Inquiry: Would you kindly share the measured folding stability dG for H31L ?
Reply text: 2.12

Inquiry: Would you kindly share the measured folding stability dG for Q34G ?
Reply text: 1.58

Inquiry: Would you kindly share the measured folding stability dG for A39T ?
Reply text: 1.41

Inquiry: Would you kindly share the measured folding stability dG for N7Q ?
Reply text: 1.85

Inquiry: Would you kindly share the measured folding stability dG for I28T ?
Reply text: -0.114

Inquiry: Would you kindly share the measured folding stability dG for D25M ?
Reply text: 2.21

Inquiry: Would you kindly share the measured folding stability dG for V15W ?
Reply text: 2.43

Inquiry: Would you kindly share the measured folding stability dG for R5N ?
Reply text: 1.18

Inquiry: Would you kindly share the measured folding stability dG for N23H ?
Reply text: 2.35

Inquiry: Would you kindly share the measured folding stability dG for Q34F ?
Reply text: 2.5

Inquiry: Would you kindly share the measured folding stability dG for Q11G ?
Reply text: 1.02

Inquiry: Would you kindly share the measured folding stability dG for G33R ?
Reply text: 0.801

Inquiry: Would you kindly share the measured folding stability dG for R22K ?
Reply text: 1.85

Inquiry: Would you kindly share the measured folding stability dG for E9Y ?
Reply text: 2.52

Inquiry: Would you kindly share the measured folding stability dG for E1N ?
Reply text: 1.8

Inquiry: Would you kindly share the measured folding stability dG for Q34R ?
Reply text: 1.59

Inquiry: Would you kindly share the measured folding stability dG for E29T ?
Reply text: 2.02

Inquiry: Would you kindly share the measured folding stability dG for L19H ?
Reply text: -0.775

Inquiry: Would you kindly share the measured folding stability dG for H31Q ?
Reply text: 1.95

Inquiry: Would you kindly share the measured folding stability dG for G8A ?
Reply text: 1.79

Inquiry: Would you kindly share the measured folding stability dG for V36L ?
Reply text: 1.78

Inquiry: Would you kindly share the measured folding stability dG for D25R ?
Reply text: 2.25

Inquiry: Would you kindly share the measured folding stability dG for T6E ?
Reply text: 0.299

Inquiry: Would you kindly share the measured folding stability dG for R22H ?
Reply text: 1.86

Inquiry: Would you kindly share the measured folding stability dG for D25P ?
Reply text: 1.08

Inquiry: Would you kindly share the measured folding stability dG for A20G ?
Reply text: 0.826

Inquiry: Would you kindly share the measured folding stability dG for N23S ?
Reply text: 1.55

Inquiry: Would you kindly share the measured folding stability dG for H31F ?
Reply text: 2.11

Inquiry: Would you kindly share the measured folding stability dG for R22N ?
Reply text: 1.45

Inquiry: Would you kindly share the measured folding stability dG for I2K ?
Reply text: 0.769

Inquiry: Would you kindly share the measured folding stability dG for E29L ?
Reply text: 1.75

Inquiry: Would you kindly share the measured folding stability dG for K21Q ?
Reply text: 2.1

Inquiry: Would you kindly share the measured folding stability dG for H31M ?
Reply text: 2.03

Inquiry: Would you kindly share the measured folding stability dG for K21Y ?
Reply text: 1.61

Inquiry: Would you kindly share the measured folding stability dG for S40Q ?
Reply text: 1.57

Inquiry: Would you kindly share the measured folding stability dG for N7A ?
Reply text: 1.95

Inquiry: Would you kindly share the measured folding stability dG for R22Q ?
Reply text: 1.76

Inquiry: Would you kindly share the measured folding stability dG for Y16L ?
Reply text: 1.55
